Data credit: patent US20250288704A1

Assay: Octanol/PBS partition coefficient (logD7.4)
Type: physicochemical
Conditions: n-octanol/PBS pH 7.4, radiolabeled compound
Non-standard residues stand in square brackets, D forms with d. Residues, ends and D or L forms follow the SMILES beside them. Groups on a side chain read outwards from the residue. *: point of attachment. X8 = NCCNCC(CNCCN)C(=O)NC[C@@H](NC(=O)CCC(NC(=O)N[C@H](CCC(=O)O)C(=O)O)C(=O)O)C(=O)*; DOTA = O=C(O)CN1CCN(CC(=O)O)CCN(CC(=O)*)CCN(CC(=O)O)CC1; 2Nal = N[C@@H](Cc1ccc2ccccc2c1)C(=O)O; dNMeOrn = CN[C@H](CCCN)C(=O)O; 4Abz = Nc1ccc(C(=O)O)cc1; dDap = NC[C@@H](N)C(=O)O
logD7.4 values for the molecules below.

Consider the worked cases shown below.
molecule	logD7.4
C[C@@H](NC(=O)[C@@H](CCCNC(=N)N)NC(=O)[C@@H](CN)NC(=O)[C@@H](CNC(=O)C(CNCCN)CNCCN)NC(=O)CCC(NC(=O)N[C@H](CCC(=O)O)C(=O)O)C(=O)O)C(=O)Nc1ccc(C(=O)NCCC[C@@H]2C(=O)N[C@@H](CCCNC(=N)N)C(=O)N[C@@H](Cc3ccc4ccccc4c3)C(=O)NCC(=O)N[C@H](Cc3ccc(O)cc3)C(=O)N2C)cc1 (some centres unmarked) [Tc-CXCR4-15] (cyclo([2Nal]G[dY][dNMeOrn]([4Abz-dA-dR-dDap-X8])R))	−3.60 ± 0.02 (8)
C[C@@H](NC(=O)[C@@H](CCCNC(=N)N)NC(=O)[C@@H](CNC(=O)c1ccc([Si](F)(C(C)(C)C)C(C)(C)C)cc1)NC(=O)CC[C@H](C(=O)O)N1CCN(CC(=O)O)CCN(CC(=O)O)CCN(CC(=O)O)CC1)C(=O)Nc1ccc(C(=O)NCCC[C@@H]2C(=O)N[C@@H](CCCNC(=N)N)C(=O)N[C@@H](Cc3ccc4ccccc4c3)C(=O)NCC(=O)N[C@H](Cc3ccc(O)cc3)C(=O)N2C)cc1 [CXCR4-SiFA-1 [Lu]]	1.41 ± 0.04 (8)
C[C@@H](NC(=O)[C@@H](CCCNC(=N)N)NC(=O)[C@@H](CN)NC(=O)CN1CCN(CC(=O)O)CCN(CC(=O)O)CCN(CC(=O)O)CC1)C(=O)Nc1ccc(C(=O)NCCC[C@@H]2C(=O)N[C@@H](CCCNC(=N)N)C(=O)N[C@@H](Cc3ccc4ccccc4c3)C(=O)NCC(=O)N[C@H](Cc3ccc(O)cc3)C(=O)N2C)cc1 [CXCR4-DOTA-3 [Ga]] (cyclo([dY][dNMeOrn]([4Abz-dA-dR-dDap-DOTA])R[2Nal]G))	−3.35 ± 0.08 (5)
C[C@@H](NC(=O)[C@@H](CCCNC(=N)N)NC(=O)[C@@H](CNC(=O)c1ccc([Si](F)(C(C)(C)C)C(C)(C)C)cc1)NC(=O)CC[C@H](C(=O)O)N1CCN(CC(=O)O)CCN(CC(=O)O)CCN(CC(=O)O)CC1)C(=O)Nc1ccc(C(=O)NCCC[C@@H]2C(=O)N[C@@H](CCCNC(=N)N)C(=O)N[C@@H](Cc3ccc4ccccc4c3)C(=O)NCC(=O)N[C@H](Cc3ccc(O)cc3)C(=O)N2C)cc1 [CXCR4-SiFA-1 [Ga]]	0.66 ± 0.01 (8)

Moving on to the next molecule.
Which logD7.4 value belongs to C[C@@H](NC(=O)[C@@H](CCCNC(=N)N)NC(=O)[C@@H](CN)NC(=O)CN1CCN(CC(=O)O)CCN(CC(=O)O)CCN(CC(=O)O)CC1)C(=O)Nc1ccc(C(=O)NCCC[C@@H]2C(=O)N[C@@H](CCCNC(=N)N)C(=O)N[C@@H](Cc3ccc4ccccc4c3)C(=O)NCC(=O)N[C@H](Cc3ccc(O)cc3)C(=O)N2C)cc1 [CXCR4-DOTA-3 [Lu]] (cyclo([dY][dNMeOrn]([4Abz-dA-dR-dDap-DOTA])R[2Nal]G)) ?
−3.35 ± 0.19 (6)

====

Test: Biodistribution in Daudi xenograft bearing CB-17 SCID mice
Type: in vivo
Details: mouse, iv, total radioactivity, Kidney, 1 h p.i., CB-17 SCID female mice, read-out: % iD/g Kidney
Positions of bridges follow the written chain, without caps; N, C: chain ends. Non-standard residues stand in square brackets, D forms with d. Residues, ends and D or L forms follow the SMILES beside them. Chains are numbered I, II in the order given. *: point of attachment. 2Nal = N[C@@H](Cc1ccc2ccccc2c1)C(=O)O; dNMeOrn = CN[C@H](CCCN)C(=O)O; Mercaptoacetyl = O=C(CS)*; 4Abz = Nc1ccc(C(=O)O)cc1
parameter: tissue uptake at 1 h (%ID/g)
Response body: numeric value in %ID/g, unit text excluded.

Which tissue uptake at 1 h value belongs to C[C@@H](NC(=O)[C@@H](CCCNC(=N)N)NC(=O)[C@@H](CO)NC(=O)[C@@H](CO)NC(=O)[C@@H](CO)NC(=O)CS)C(=O)Nc1ccc(C(=O)NCCC[C@@H]2C(=O)N[C@@H](CCCNC(=N)N)C(=O)N[C@@H](Cc3ccc4ccccc4c3)C(=O)NCC(=O)N[C@H](Cc3ccc(O)cc3)C(=O)N2C)cc1 [Tc-CXCR4-1] (I: Mercaptoacetyl-[dS][dS][dS][dR][dA][4Abz] / II: cyclo([dY][dNMeOrn]R[2Nal]G); amide I:C-II:2) ?
4

====

Assay: Biodistribution in Jurkat tumor-bearing CB-17 SCID mice
Type: in vivo
Details: female, CB-17 SCID, mouse, in vivo, iv, total radioactivity, % iD/g Muscle
Non-standard residues stand in square brackets, D forms with d. Residues, ends and D or L forms follow the SMILES beside them. Groups on a side chain read outwards from the residue. *: point of attachment. DOTA = O=C(O)CN1CCN(CC(=O)O)CCN(CC(=O)*)CCN(CC(=O)O)CC1; dTyr(3-I) = N[C@H](Cc1ccc(O)c(I)c1)C(=O)O; 2Nal = N[C@@H](Cc1ccc2ccccc2c1)C(=O)O; dNMeOrn = CN[C@H](CCCN)C(=O)O; HYNIC = NNc1ccc(C(=O)*)cn1; 4Amb = NCc1ccc(C(=O)O)cc1; 4Abz = Nc1ccc(C(=O)O)cc1; dDap = NC[C@@H](N)C(=O)O
Hi, to clarify the labels: Fulfilled covers tissue uptake at 1 h from 0.2 %ID/g upward, Not fulfilled covers anything below 0.2 %ID/g.

Field: example entries. Status: answers known.
compound	label
C[C@@H](NC(=O)[C@@H](CCCNC(=N)N)NC(=O)[C@@H](CN)NC(=O)CCCCCNC(=O)[C@@H](CNC(=O)CN1CCN(CC(=O)O)CCN(CC(=O)O)CCN(CC(=O)O)CC1)NC(=O)CCCCC[N+]1=C(/C=C/C=C/C=C2/N(C)c3ccc(S(=O)(=O)O)cc3C2(C)C)C(C)(C)c2cc(S(=O)(=O)[O-])ccc21)C(=O)Nc1ccc(C(=O)NCCC[C@@H]2C(=O)N[C@@H](CCCNC(=N)N)C(=O)N[C@@H](Cc3ccc4ccccc4c3)C(=O)NCC(=O)N[C@H](Cc3ccc(O)cc3)C(=O)N2C)cc1 [[^natLu]CXCR4-OI-3, metal not drawn]	Fulfilled
C[C@@H](NC(=O)[C@@H](CCCNC(=N)N)NC(=O)[C@@H](CN)NC(=O)CN1CCN(CC(=O)O)CCN(CC(=O)O)CCN(CC(=O)O)CC1)C(=O)Nc1ccc(C(=O)NCCC[C@@H]2C(=O)N[C@@H](CCCNC(=N)N)C(=O)N[C@@H](Cc3ccc4ccccc4c3)C(=O)NCC(=O)N[C@H](Cc3ccc(O)cc3)C(=O)N2C)cc1 [CXCR4-DOTA-3 [Lu]] (cyclo([dY][dNMeOrn]([4Abz-dA-dR-dDap-DOTA])R[2Nal]G))	Not fulfilled
C[C@@H](NC(=O)[C@@H](CCCNC(=N)N)NC(=O)[C@@H](CN)NC(=O)CN1CCN(CC(=O)O)CCN(CC(=O)O)CCN(CC(=O)O)CC1)C(=O)NCc1ccc(C(=O)NCCC[C@@H]2C(=O)N[C@@H](CCCNC(=N)N)C(=O)N[C@@H](Cc3ccc4ccccc4c3)C(=O)NCC(=O)N[C@H](Cc3ccc(O)c(I)c3)C(=O)N2C)cc1 [CXCR4-DOTA-2 [Lu]] (cyclo([dTyr(3-I)][dNMeOrn]([4Amb-dA-dR-dDap-DOTA])R[2Nal]G))	Fulfilled
C[C@@H](NC(=O)[C@@H](CCCNC(=N)N)NC(=O)[C@@H](CN)NC(=O)CN1CCN(CC(=O)O)CCN(CC(=O)O)CCN(CC(=O)O)CC1)C(=O)NCc1ccc(C(=O)NCCC[C@@H]2C(=O)N[C@@H](CCCNC(=N)N)C(=O)N[C@@H](Cc3ccc4ccccc4c3)C(=O)NCC(=O)N[C@H](Cc3ccc(O)cc3)C(=O)N2C)cc1 [CXCR4-DOTA-1 [Lu]] (cyclo([dY][dNMeOrn]([4Amb-dA-dR-dDap-DOTA])R[2Nal]G))	Fulfilled
C[C@@H](NC(=O)[C@@H](CCCNC(=N)N)NC(=O)[C@@H](CN)NC(=O)c1ccc(NN)nc1)C(=O)Nc1ccc(C(=O)NCCC[C@@H]2C(=O)N[C@@H](CCCNC(=N)N)C(=O)N[C@@H](Cc3ccc4ccccc4c3)C(=O)NCC(=O)N[C@H](Cc3ccc(O)cc3)C(=O)N2C)cc1 [Tc-CXCR4-13] (cyclo([dY][dNMeOrn]([4Abz-dA-dR-dDap-HYNIC])R[2Nal]G))	Fulfilled

Decide: tissue uptake at 1 h of C[C@@H](NC(=O)[C@@H](CCCNC(=N)N)NC(=O)[C@@H](CN)NC(=O)CN1CCN(CC(=O)O)CCN(CC(=O)O)CCN(CC(=O)O)CC1)C(=O)Nc1ccc(C(=O)NCCC[C@@H]2C(=O)N[C@@H](CCCNC(=N)N)C(=O)N[C@@H](Cc3ccc4ccccc4c3)C(=O)NCC(=O)N[C@H](Cc3ccc(O)c(I)c3)C(=O)N2C)cc1 [CXCR4-DOTA-4 [Lu]] (cyclo([dTyr(3-I)][dNMeOrn]([4Abz-dA-dR-dDap-DOTA])R[2Nal]G)) >= 0.2 %ID/g?
Fulfilled

Decide: tissue uptake at 1 h of CN1C(=O)[C@@H](Cc2ccc(O)cc2)NC(=O)CNC(=O)[C@H](Cc2ccc3ccccc3c2)NC(=O)[C@H](CCCNC(=N)N)NC(=O)[C@H]1CCCNC(=O)c1ccc(CNC(=O)CN2CCN(CC(=O)O)CCN(CC(=O)O)CCN(CC(=O)O)CC2)cc1 [^68Ga-Pentixafor, metal not drawn, reference compound] (cyclo([dY][dNMeOrn]([4Amb-DOTA])R[2Nal]G)) >= 0.2 %ID/g?
Not fulfilled
